FYI, the data here is from ChEMBL document CHEMBL1201862.

Tested on: HL-60
experimental.protocol: NCI tumour cell line growth inhibition, 48 h
Activity calls are given as the source filed them. Rule as the data show it: active = GI50 up to about 1.1 µM and inactive = higher.
Catalogue of GI50 readings, one per entry.
assay.readout: GI50

| molecule | reported.measurement |
| --- | --- |
| CC(=O)O[C@H]1C(N(C)C(=O)c2ccccc2)CC[C@]2(C)C3CC[C@@]4(C)C(CC(O)[C@@H]4C(C)N(C)C)[C@@H]3CCC12 (some centres undefined) | 89.5 µM (inactive) |
| c1cnc2c(c1)-n1cccc1C1(CCCCC1)NN2 | 93.8 µM (inactive) |
| Cc1cc2c(cc1-c1cc3c(cc1C)C(C(C)C)=C(O)C(=O)/C3=C\Nc1c(C)n(C)n(-c3ccccc3)c1=O)/C(=C/Nc1c(C)n(C)n(-c3ccccc3)c1=O)C(=O)C(O)=C2C(C)C | 33.9 µM (inactive) |
| COC(=S)OC1CC(n2cnc3c(N)ncnc32)OC1CO[Si](C)(C)C(C)(C)C (centres undefined) | > 100 µM (inactive) |
| CC1CC(C)C(=O)C(C(=O)CC2CC(=O)NC2=O)C1 (centres undefined) | > 100 µM (inactive) |
| CN1CCN(c2cc(-c3cc4ccccc4o3)oc(=O)c2C#N)CC1 | 43.9 µM (inactive) |
| CCOC(=O)c1cc(-c2ccc(OC)c(OC)c2)c[nH]1 | > 10 µM (inactive) |
| O=[N+]([O-])c1ccccc1S(=O)(=O)c1cccc2c1NCCC2 | 24 µM (inactive) |
| O=C(c1nc2ccc(Cl)cc2[nH]c1=O)C(O)c1ccco1 (centres undefined) | 6.14 µM (inactive) |
